# reported GFP response vs DMSO; entries follow
- assay-text: modulators of LAP4-GFP expression in yeast, primary screen, S. cerevisiae, multiplex flow cytometry (AID 1873)
- reported-conditions: 3 h, at 10 µM, active compounds read high
Results filed as inconclusive are left out.

>  <compound>
O=Cc1cn(Cc2ccc(F)cc2)c2ccccc12

>  <measure-unit>
%

>  <GFP response vs DMSO>
129

$$$$
>  <compound>
Clc1ccc(C2NCCc3[nH]cnc32)cc1 (stereo not drawn)

>  <measure-unit>
%

>  <GFP response vs DMSO>
92

$$$$
>  <compound>
CC[C@]12C=CCN3CCC4(c5cc(Br)c(OC)cc5N(C)C4[C@@](O)(C(=O)OC)[C@@H]1OC(C)=O)C32 (stereo partly drawn)

>  <measure-unit>
%

>  <GFP response vs DMSO>
84.2

$$$$
>  <compound>
CCOc1ccc(N2C(=O)NC(=O)/C(=C\c3cc(OC)c(OC)cc3[N+](=O)[O-])C2=O)cc1

>  <measure-unit>
%

>  <GFP response vs DMSO>
89.3

$$$$
>  <compound>
COc1ccc2c(c1)CC1(CN2C)C(=O)NC(=O)N(CCc2ccccc2)C1=O (stereo not drawn)

>  <measure-unit>
%

>  <GFP response vs DMSO>
88.1

$$$$
>  <compound>
CC(C)[C@@]1(NC(=O)[C@@H]2C[C@@H]3c4cccc5[nH]cc(c45)C[C@H]3N(C)C2)O[C@@]2(O)[C@@H]3CCCN3C(=O)[C@H](Cc3ccccc3)N2C1=O

>  <measure-unit>
%

>  <GFP response vs DMSO>
84.2

$$$$
>  <compound>
COc1ccc(-c2nc3ccccc3c(=O)o2)cc1

>  <measure-unit>
%

>  <GFP response vs DMSO>
106

$$$$
>  <compound>
c1ccc2c3c([nH]c2c1)CNCC3

>  <measure-unit>
%

>  <GFP response vs DMSO>
111

$$$$
>  <compound>
Cc1cc(Cl)ccc1OCC(=O)O

>  <measure-unit>
%

>  <GFP response vs DMSO>
105

$$$$
>  <compound>
CC(C)(C)NCC(O)c1cc(Cl)c(N)c(Cl)c1 (stereo not drawn)

>  <measure-unit>
%

>  <GFP response vs DMSO>
99.1

$$$$
>  <compound>
CN1C2CCC1CC(OC(=O)c1ccc(Cl)cc1)C2 (stereo not drawn)

>  <measure-unit>
%

>  <GFP response vs DMSO>
119

$$$$
>  <compound>
CC(C)CCC1(CN2CCCC2=O)C(=O)NC(=O)NC1=O

>  <measure-unit>
%

>  <GFP response vs DMSO>
120

$$$$
>  <compound>
CN[C@H](C)[C@H](O)c1ccccc1

>  <measure-unit>
%

>  <GFP response vs DMSO>
87.5

$$$$
